- STUDY TARGET: PRMT5/MEP50 complex (Homo sapiens (Human))
- TEST PROTOCOL: PRMT5:MEP50 FlashPlate Assay
- Type: biochemical
- EXPERIMENTAL SETUP: histone H4 peptide, absence of MTA, read-out: IC50
pIC50: −log10 of the molar value.
Task for the reader: assign each of the following molecules its reported pIC50.

Query pIC50 on PRMT5/MEP50 complex (Homo sapiens (Human)) for Cc1cc(N)nc2cc(Cc3ccccc3C#N)cnc12 [Example 2-4] < 3.52

pIC50 of Cc1cc(N)nc2cc(Cc3ccccc3Cl)cnc12 [Example 2-3] on PRMT5/MEP50 complex (Homo sapiens (Human))? < 3.52

PRMT5/MEP50 complex (Homo sapiens (Human)) / pIC50 / Nc1nc2cc(NC(=O)c3ccccc3)[nH]c2cc1Br [Example 12-1] : value? < 4.00

* * *

Please go through the items and note down their IC50.
- STUDY TARGET: PRMT5/MEP50 complex (Homo sapiens (Human), UniProt O14744)
- Sequence (O14744 whole entry): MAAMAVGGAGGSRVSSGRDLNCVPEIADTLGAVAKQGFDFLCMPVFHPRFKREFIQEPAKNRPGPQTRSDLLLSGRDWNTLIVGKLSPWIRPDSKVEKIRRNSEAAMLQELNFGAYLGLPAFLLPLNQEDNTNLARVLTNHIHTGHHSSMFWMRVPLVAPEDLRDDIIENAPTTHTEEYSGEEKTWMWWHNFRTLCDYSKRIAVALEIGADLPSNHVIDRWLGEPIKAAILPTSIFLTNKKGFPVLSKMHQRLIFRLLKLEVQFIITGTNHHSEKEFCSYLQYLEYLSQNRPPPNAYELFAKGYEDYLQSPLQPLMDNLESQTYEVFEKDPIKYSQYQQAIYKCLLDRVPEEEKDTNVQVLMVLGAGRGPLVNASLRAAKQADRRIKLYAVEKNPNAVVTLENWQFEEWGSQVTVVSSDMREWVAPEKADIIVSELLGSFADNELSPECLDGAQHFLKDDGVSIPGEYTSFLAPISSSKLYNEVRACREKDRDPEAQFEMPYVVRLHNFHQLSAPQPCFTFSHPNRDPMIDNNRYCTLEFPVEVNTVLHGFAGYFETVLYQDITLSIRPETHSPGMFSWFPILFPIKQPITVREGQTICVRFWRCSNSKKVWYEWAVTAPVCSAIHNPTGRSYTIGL
- Sequence (Q9BQA1 whole entry partner): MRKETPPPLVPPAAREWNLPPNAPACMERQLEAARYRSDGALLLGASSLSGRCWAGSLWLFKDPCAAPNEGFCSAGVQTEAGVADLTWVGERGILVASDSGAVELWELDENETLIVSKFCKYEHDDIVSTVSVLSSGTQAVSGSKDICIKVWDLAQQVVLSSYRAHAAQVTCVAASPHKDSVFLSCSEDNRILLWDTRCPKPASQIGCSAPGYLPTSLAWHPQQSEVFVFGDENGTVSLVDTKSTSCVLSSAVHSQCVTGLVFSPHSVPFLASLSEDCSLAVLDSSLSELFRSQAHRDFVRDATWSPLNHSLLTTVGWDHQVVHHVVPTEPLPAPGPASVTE
- TEST PROTOCOL: PRMT5:MEP50 FlashPlate Assay
- Format: biochemical
- EXPERIMENTAL SETUP: histone H4 peptide, absence of MTA, read-out: IC50

Return reported IC50; argument: Cc1cc(N)nc2cc(CN3C(=O)c4ccccc4C3=O)cnc12 > 300 µM

Record request: IC50 value, item Cc1cc2[nH]c(N3CC(=O)N(C)C3=O)cc2nc1N > 300 µM

// returns reported IC50 for input Cn1ncc(N2CCc3cc(F)c(N)nc3C2)c1-c1ccccc1C#N > 300 µM

* * *

- STUDY TARGET: PRMT5/MEP50 complex (Homo sapiens (Human))
- TEST PROTOCOL: PRMT5:MEP50 FlashPlate Assay
- Assay type: biochemical
- EXPERIMENTAL SETUP: read-out: IC50 + 2 μM MTA, histone H4 peptide, presence of 2 μM MTA
- Procedure: The PRMT5 inhibitory activity of compounds of the present invention was determined using a PRMT5:MEP50 FlashPlate Assay (Reaction Biology Corporation). The assay uses purified human, PRMT5 enzyme to convert S-adenosyl-L-[methyl-^3H]methionine plus histone H4 L-arginine to S-adenosyl-L-homocysteine plus histone H4 [methyl-^3H]-L-arginine. […] The reaction was stopped and the amount of bound, tritiated H4 peptide in each sample was determined using a scintillation counter. […]
Can you tell me IC50 for the items I'm about to list?
Entry rule: numbers only, all in µM.

Give the measured IC50 of Cc1cc(N)nc2cc(Oc3cccnc3)cnc12 [Example 3-7] . 26.1

Could you tell me which IC50 is on file for Cc1cc2[nH]ccc2nc1N [Example 9-1] ? 27.9

Sample Nc1nc2cc[nH]c2cc1C1CC1 [Example 9-2] — what was its IC50? 97.8

* * *

- STUDY TARGET: PRMT5/MEP50 complex (Homo sapiens (Human), UniProt O14744)
- TEST PROTOCOL: PRMT5:MEP50 FlashPlate Assay
- Format: biochemical
- EXPERIMENTAL SETUP: read-out: IC50 + 2 μM MTA, histone H4 peptide, presence of 2 μM MTA
pIC50: −log10 of the molar value.
MEASURED ATTRIBUTE: pIC50

Endpoint output: pIC50 of Cc1cc(N)nc2cc(Cc3ccccc3C#N)cnc12 [Example 2-4] . Value? < 3.52

Quick check: pIC50 of Cc1cc(N)nc2cc(Cc3ccccc3Cl)cnc12 [Example 2-3] ? < 3.52

Which value of pIC50 has been reported for Nc1nc2cc(NC(=O)c3ccccc3)[nH]c2cc1Br [Example 12-1] in the records? < 4.00

Find the recorded pIC50 belonging to Cc1cc2[nH]c(N3CC(=O)N(C)C3=O)cc2nc1N [Example 13-4] and report it. < 3.52

The measurements presented in this section are drawn from patent US20240368153A1.
